- target_desc: KinA/Spo0F (sporulation kinase A/sporulation initiation phosphotransferase F) (Bacillus subtilis (strain 168), UniProt P06628+P16497)
- assay_name: Inhibition of KinA/Sp0F system two component (TCS) from Bacillus subtilis.
- Assay type: protein assay
Below: a set of entries, each annotated with reported log10 IC50.
Please interpret these as log10 of IC50 where IC50 is in µM.

Take a look at these entries with their results.
CC(C)(N)CNC(=O)c1ccc2[nH]c(-c3cc(C(C)(C)C)cc(C(C)(C)C)c3O)nc2c1 | 1.00
CC(C)(C)c1cc(-c2nc3cc(C4=NCCN4)ccc3[nH]2)c(O)c(C(C)(C)C)c1 | 1.00
N=C(N)c1ccc2nc(-c3ccc(-c4ccccc4)cc3)[nH]c2c1 | 1.94
N=C(N)c1ccc2[nH]c(-c3ccc(N(c4ccccc4)c4ccccc4)cc3)nc2c1 | 1.23
N=C(N)c1ccc2nc(-c3ccc(Oc4ccccc4)cc3)oc2c1 | 1.69
CC(C)(C)c1cc(-c2nc3ccc(C(=N)N)cc3o2)c(O)c(C(C)(C)C)c1 | 1.19
N=C(N)c1ccc2cc(-c3ccc(Oc4ccccc4)cc3)[nH]c2c1 | 0.89
COC(=O)c1ccc2[nH]c(-c3cc(C(C)(C)C)cc(C(C)(C)C)c3O)nc2c1 | 2.58

In: I am curious: what log10 IC50 value has been reported for `CC(C)(C)c1cc(-c2nc3cc(C(=N)N)ccc3[nH]2)c(O)c(C(C)(C)C)c1` ?
Out: 1.08

In: Param item: `CC(C)(C)c1cccc(-c2nc3cc(C(=N)N)ccc3[nH]2)c1`
Out: 2.21

In: How about this compound: `Cn1c(-c2ccc(Oc3ccccc3)cc2)nc2cc(C(=N)N)ccc21`
Out: 1.64

In: Now the same for `N=C(N)c1ccc2oc(-c3ccc(Oc4ccccc4)cc3)nc2c1`
Out: 2.14

In: What about this compound? `CC(C)(C)c1cccc(-c2nc3cc(C(=N)N)ccc3[nH]2)c1O`
Out: 0.78

In: Next up: `CC(C)(C)c1cc(-c2nc3cc(C(=N)N)ccc3o2)c(O)c(C(C)(C)C)c1`
Out: 1.15

In: Record: `CC(C)(C)c1cc(-c2nc3cc(C(=N)N)ccc3[nH]2)cc(C(C)(C)C)c1`
Out: 1.40
